# ASSAY SUMMARY: Stability test (2): salt crystalline forms at high temperature, high humidity and light, detection by HPLC and XRPD
# Assay type: physicochemical
# CONDITIONS: HPLC; light (RT, white light 6980 lux, UV 282 μW/cm2), 5 days
As shown below, each of these molecules has a reported total impurities (%) value.
Could you give me the number in %? Just the number is fine.

O=C(NS(=O)(=O)c1ccc(NC[C@H]2COCCO2)c([N+](=O)[O-])c1)c1ccc(N2CCN(CC3=C(c4ccc(Cl)cc4)CC4(CCC4)CC3)CC2)cc1Oc1cnc2[nH]ccc2c1.O=S(=O)(O)c1ccccc1 [XXVII]	1.20
O=C(NS(=O)(=O)c1ccc(NC[C@H]2COCCO2)c([N+](=O)[O-])c1)c1ccc(N2CCN(CC3=C(c4ccc(Cl)cc4)CC4(CCC4)CC3)CC2)cc1Oc1cnc2[nH]ccc2c1.O=S(=O)(O)O [XXX]	0.82
O=C(NS(=O)(=O)c1ccc(NC[C@H]2COCCO2)c([N+](=O)[O-])c1)c1ccc(N2CCN(CC3=C(c4ccc(Cl)cc4)CC4(CCC4)CC3)CC2)cc1Oc1cnc2[nH]ccc2c1.O=C(O)/C=C\C(=O)O [XXIV]	0.73

**Query** Any idea what its total impurities (%) is? The molecule is CS(=O)(=O)O.O=C(NS(=O)(=O)c1ccc(NC[C@H]2COCCO2)c([N+](=O)[O-])c1)c1ccc(N2CCN(CC3=C(c4ccc(Cl)cc4)CC4(CCC4)CC3)CC2)cc1Oc1cnc2[nH]ccc2c1 [XXXIII]
**Result** 0.84

###

# ASSAY SUMMARY: Evaluation of hygroscopicity by Dynamic Moisture Sorption Analyzer (DVS), with XRPD before and after DVS
# Format: physicochemical
# CONDITIONS: XRPD before and after DVS
MEASURE NAME: XRPD change

Below are worked cases with known answers.
O=C(NS(=O)(=O)c1ccc(NC[C@H]2COCCO2)c([N+](=O)[O-])c1)c1ccc(N2CCN(CC3=C(c4ccc(Cl)cc4)CC4(CCC4)CC3)CC2)cc1Oc1cnc2[nH]ccc2c1.O=S(=O)(O)c1ccccc1	no change
CS(=O)(=O)O.O=C(NS(=O)(=O)c1ccc(NC[C@H]2COCCO2)c([N+](=O)[O-])c1)c1ccc(N2CCN(CC3=C(c4ccc(Cl)cc4)CC4(CCC4)CC3)CC2)cc1Oc1cnc2[nH]ccc2c1	changed
O=C(NS(=O)(=O)c1ccc(NCC2COCCO2)c([N+](=O)[O-])c1)c1ccc(N2CCN(CC3=C(c4ccc(Cl)cc4)CC4(CCC4)CC3)CC2)cc1Oc1cnc2[nH]ccc2c1 (centres unmarked) [citrate crystalline Form XXXVI]	no change
O=C(NS(=O)(=O)c1ccc(NCC2COCCO2)c([N+](=O)[O-])c1)c1ccc(N2CCN(CC3=C(c4ccc(Cl)cc4)CC4(CCC4)CC3)CC2)cc1Oc1cnc2[nH]ccc2c1 (centres unmarked) [maleate crystalline Form XL]	no change
O=C(NS(=O)(=O)c1ccc(NC[C@H]2COCCO2)c([N+](=O)[O-])c1)c1ccc(N2CCN(CC3=C(c4ccc(Cl)cc4)CC4(CCC4)CC3)CC2)cc1Oc1cnc2[nH]ccc2c1.O=S(=O)(O)O	no change

**Query** Report XRPD change for `Cc1ccc(S(=O)(=O)O)cc1.O=C(NS(=O)(=O)c1ccc(NC[C@H]2COCCO2)c([N+](=O)[O-])c1)c1ccc(N2CCN(CC3=C(c4ccc(Cl)cc4)CC4(CCC4)CC3)CC2)cc1Oc1cnc2[nH]ccc2c1` please.
**Result** no change

**Query** Bench note: what XRPD change did `O=C(NS(=O)(=O)c1ccc(NC[C@H]2COCCO2)c([N+](=O)[O-])c1)c1ccc(N2CCN(CC3=C(c4ccc(Cl)cc4)CC4(CCC4)CC3)CC2)cc1Oc1cnc2[nH]ccc2c1.O=C(O)CC(O)(CC(=O)O)C(=O)O` show?
**Result** no change

**Query** Any idea what its XRPD change is? The molecule is `O=C(NS(=O)(=O)c1ccc(NC[C@H]2COCCO2)c([N+](=O)[O-])c1)c1ccc(N2CCN(CC3=C(c4ccc(Cl)cc4)CC4(CCC4)CC3)CC2)cc1Oc1cnc2[nH]ccc2c1.O=C(O)/C=C\C(=O)O`
**Result** changed

###

# ASSAY SUMMARY: Stability test (2): salt crystalline forms at high temperature, high humidity and light, detection by HPLC and XRPD
# Assay type: physicochemical
# CONDITIONS: HPLC; 60° C. (open), 5 days
Entry flag: rule met if total impurities (%) reaches 0.9%; rule not met if it does not.

Sample answers from the record:
O=C(NS(=O)(=O)c1ccc(NC[C@H]2COCCO2)c([N+](=O)[O-])c1)c1ccc(N2CCN(CC3=C(c4ccc(Cl)cc4)CC4(CCC4)CC3)CC2)cc1Oc1cnc2[nH]ccc2c1.O=S(=O)(O)c1ccccc1 [XXVII]	rule met
Cc1ccc(S(=O)(=O)O)cc1.O=C(NS(=O)(=O)c1ccc(NC[C@H]2COCCO2)c([N+](=O)[O-])c1)c1ccc(N2CCN(CC3=C(c4ccc(Cl)cc4)CC4(CCC4)CC3)CC2)cc1Oc1cnc2[nH]ccc2c1 [XXIX]	rule not met

Please find the next compound below.
**Query** Decide: is the reported value of total impurities (%) for O=C(NS(=O)(=O)c1ccc(NC[C@H]2COCCO2)c([N+](=O)[O-])c1)c1ccc(N2CCN(CC3=C(c4ccc(Cl)cc4)CC4(CCC4)CC3)CC2)cc1Oc1cnc2[nH]ccc2c1.O=C(O)/C=C\C(=O)O [XXIV] equal to or greater than 0.9%?
**Result** rule not met

###

# ASSAY SUMMARY: Stability test (2): salt crystalline forms at high temperature, high humidity and light, detection by HPLC and XRPD
# Assay type: physicochemical
# CONDITIONS: HPLC; RT/75% RH (open), 30 days
MEASURE NAME: total impurities (%)
Entry rule: numbers only, all in %.

**Query** Consider the molecule `Cc1ccc(S(=O)(=O)O)cc1.O=C(NS(=O)(=O)c1ccc(NC[C@H]2COCCO2)c([N+](=O)[O-])c1)c1ccc(N2CCN(CC3=C(c4ccc(Cl)cc4)CC4(CCC4)CC3)CC2)cc1Oc1cnc2[nH]ccc2c1` and give its measured total impurities (%).
**Result** 0.60

**Query** Which total impurities (%) value is on record for `O=C(NS(=O)(=O)c1ccc(NC[C@H]2COCCO2)c([N+](=O)[O-])c1)c1ccc(N2CCN(CC3=C(c4ccc(Cl)cc4)CC4(CCC4)CC3)CC2)cc1Oc1cnc2[nH]ccc2c1.O=C(O)/C=C\C(=O)O` ?
**Result** 0.50

**Query** For the molecule shown here, `O=C(NS(=O)(=O)c1ccc(NC[C@H]2COCCO2)c([N+](=O)[O-])c1)c1ccc(N2CCN(CC3=C(c4ccc(Cl)cc4)CC4(CCC4)CC3)CC2)cc1Oc1cnc2[nH]ccc2c1.O=S(=O)(O)O` , give the reported total impurities (%).
**Result** 0.74

###

# ASSAY SUMMARY: Stability test (2): salt crystalline forms at high temperature, high humidity and light, detection by HPLC and XRPD
# Format: physicochemical
# CONDITIONS: HPLC; 60° C. (open), 10 days
Returns t if the recorded total impurities (%) is greater than or equal to 0.9%, and f otherwise.

Previously resolved entries follow.
O=C(NS(=O)(=O)c1ccc(NC[C@H]2COCCO2)c([N+](=O)[O-])c1)c1ccc(N2CCN(CC3=C(c4ccc(Cl)cc4)CC4(CCC4)CC3)CC2)cc1Oc1cnc2[nH]ccc2c1.O=S(=O)(O)c1ccccc1 [XXVII]	t
Cc1ccc(S(=O)(=O)O)cc1.O=C(NS(=O)(=O)c1ccc(NC[C@H]2COCCO2)c([N+](=O)[O-])c1)c1ccc(N2CCN(CC3=C(c4ccc(Cl)cc4)CC4(CCC4)CC3)CC2)cc1Oc1cnc2[nH]ccc2c1 [XXIX]	f

**Query** Hi, just wondering whether O=C(NS(=O)(=O)c1ccc(NC[C@H]2COCCO2)c([N+](=O)[O-])c1)c1ccc(N2CCN(CC3=C(c4ccc(Cl)cc4)CC4(CCC4)CC3)CC2)cc1Oc1cnc2[nH]ccc2c1.O=C(O)/C=C\C(=O)O [XXIV] shows total impurities (%) of 0.9% or higher.
**Result** f

###

# ASSAY SUMMARY: Stability test (2): salt crystalline forms at high temperature, high humidity and light, detection by HPLC and XRPD
# Type: physicochemical
# CONDITIONS: HPLC; 60° C. (open), 5 days
MEASURE NAME: total impurities (%)
// return numeric value only (unit: %, not printed)

**Query** Would you mind telling me what total impurities (%) value was observed for O=C(NS(=O)(=O)c1ccc(NC[C@H]2COCCO2)c([N+](=O)[O-])c1)c1ccc(N2CCN(CC3=C(c4ccc(Cl)cc4)CC4(CCC4)CC3)CC2)cc1Oc1cnc2[nH]ccc2c1.O=S(=O)(O)O [XXX] ?
**Result** 0.89

**Query** Param item = CS(=O)(=O)O.O=C(NS(=O)(=O)c1ccc(NC[C@H]2COCCO2)c([N+](=O)[O-])c1)c1ccc(N2CCN(CC3=C(c4ccc(Cl)cc4)CC4(CCC4)CC3)CC2)cc1Oc1cnc2[nH]ccc2c1 [XXXIII] ; retrieve measured total impurities (%).
**Result** 0.90

**Query** Reported total impurities (%) for O=C(NS(=O)(=O)c1ccc(NC[C@H]2COCCO2)c([N+](=O)[O-])c1)c1ccc(N2CCN(CC3=C(c4ccc(Cl)cc4)CC4(CCC4)CC3)CC2)cc1Oc1cnc2[nH]ccc2c1.O=C(O)CC(O)(CC(=O)O)C(=O)O [XXXIX] : what is it?
**Result** 0.90
